- Target Desc: human SGLT1 (Homo sapiens, UniProt P13866)
- Construct: expressed in transfected cells
- Sequence (P13866 whole entry): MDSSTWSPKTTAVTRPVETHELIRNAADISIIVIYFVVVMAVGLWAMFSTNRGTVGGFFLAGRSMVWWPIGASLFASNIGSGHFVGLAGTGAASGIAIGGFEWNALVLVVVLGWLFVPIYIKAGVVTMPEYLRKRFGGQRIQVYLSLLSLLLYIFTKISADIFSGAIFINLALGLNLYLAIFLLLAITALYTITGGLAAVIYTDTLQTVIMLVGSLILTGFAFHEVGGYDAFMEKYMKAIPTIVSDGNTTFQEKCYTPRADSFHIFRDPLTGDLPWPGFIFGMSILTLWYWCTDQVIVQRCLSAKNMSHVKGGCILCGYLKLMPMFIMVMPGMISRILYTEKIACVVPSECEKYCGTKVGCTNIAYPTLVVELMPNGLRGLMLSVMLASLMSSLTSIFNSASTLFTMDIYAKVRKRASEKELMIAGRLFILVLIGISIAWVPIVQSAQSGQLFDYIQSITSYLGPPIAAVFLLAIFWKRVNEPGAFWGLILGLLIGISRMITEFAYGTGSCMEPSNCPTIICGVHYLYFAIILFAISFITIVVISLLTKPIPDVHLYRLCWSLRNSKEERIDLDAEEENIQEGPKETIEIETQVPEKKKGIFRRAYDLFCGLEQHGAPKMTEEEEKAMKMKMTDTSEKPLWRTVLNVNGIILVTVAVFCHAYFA
- Assay Comment: Cell-based assay for sodium-dependent glucose transport (14C-AMG uptake), CHOK-SGLT1
- Experimental Context: 10 uM compound; CHO-K1 cells stably expressing human SGLT1; Na-dependent 14C-AMG uptake; read-out: CHOK-SGLT1 % Inh (10 uM)
Experimental Readout: inhibition at 10 µM (%)

Consider the following illustrative entries.
Cc1cc(OC2OC(CO)C(O)C(O)C2O)c2c(CCc3ccc4c(c3)CCO4)nn(C)c2c1 (stereo not shown) : 47
COc1ccc(CCc2n[nH]c3cc(C)cc(OC4OC(CO)C(O)C(O)C4O)c23)cc1 (stereo not shown) : 11
CC(=O)OC[C@H]1O[C@@H](Oc2cc(C)cc3[nH]nc(CCc4ccc5occc5c4)c23)[C@H](O)[C@@H](O)[C@@H]1O : 42

P. CC(=O)OC[C@H]1O[C@@H](Oc2cc(C)cc3[nH]nc(CCc4ccc5c(c4)CCO5)c23)[C@H](O)[C@@H](O)[C@@H]1O
Q. Cc1cc(O[C@@H]2O[C@H](CO)[C@@H](O)[C@H](O)[C@H]2O)c2c(CCc3ccc4c(c3)CCO4)n[nH]c2c1
R. CCOc1ccc(CCc2n[nH]c3cc(C)cc(OC4OC(CO)C(O)C(O)C4O)c23)cc1 (stereo not shown)
query: Given 3 compounds, produce a descending ranking by inhibition at 10 µM. Thanks in advance for listing the labels in the requested order.
result: Q, P, R
